Quick reference: log10 of Ki of the listed items.
Target: Muscarinic acetylcholine receptor M1 (Homo sapiens, UniProt P11229)
Sequence (P11229 whole entry): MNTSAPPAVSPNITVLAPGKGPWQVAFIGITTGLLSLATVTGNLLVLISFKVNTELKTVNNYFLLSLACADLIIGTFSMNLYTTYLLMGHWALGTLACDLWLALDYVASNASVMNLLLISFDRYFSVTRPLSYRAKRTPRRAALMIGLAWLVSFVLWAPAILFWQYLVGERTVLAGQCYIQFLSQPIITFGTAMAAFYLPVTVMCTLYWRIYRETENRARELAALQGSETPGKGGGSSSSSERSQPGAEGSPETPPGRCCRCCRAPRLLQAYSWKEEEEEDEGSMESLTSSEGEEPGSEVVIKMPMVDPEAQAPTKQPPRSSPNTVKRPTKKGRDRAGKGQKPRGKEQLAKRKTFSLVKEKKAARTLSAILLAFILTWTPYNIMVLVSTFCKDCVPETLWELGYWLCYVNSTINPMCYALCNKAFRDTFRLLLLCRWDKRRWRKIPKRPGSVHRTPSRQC
Assay: Binding affinity against human Muscarinic acetylcholine receptor M1 in transfected CHO cells
Use the decimal logarithm of Ki (nM).

Some solved cases for reference:
1) O=C(N1CCC(CCN2CCCCC2)CC1)[C@](O)(c1ccccc1)[C@@H]1CCC(F)(F)C1    3.28
2) NC1CCN(C(=O)[C@](O)(c2ccccc2)[C@@H]2CCC(F)(F)C2)CC1    0.48
3) CC(C)(N)CC1CCN(C(=O)[C@](O)(c2ccccc2)[C@@H]2CCC(F)(F)C2)CC1    1.57
4) NCCCCC1CCN(C(=O)[C@](O)(c2ccccc2)[C@@H]2CCC(F)(F)C2)CC1    2.15

**Q:** State, for Muscarinic acetylcholine receptor M1 (Homo sapiens, UniProt P11229), measured log10 of Ki of the molecule listed here: O=C(NC1CCNCC1)[C@](O)(c1ccccc1)[C@@H]1CCC(F)(F)C1
**A:** 2.49

**Q:** State, for Muscarinic acetylcholine receptor M1 (Homo sapiens, UniProt P11229), measured log10 of Ki of the molecule listed here: O=C(N1CCCNCC1)[C@](O)(c1ccccc1)[C@@H]1CCC(F)(F)C1
**A:** 1.15

**Q:** State, for Muscarinic acetylcholine receptor M1 (Homo sapiens, UniProt P11229), measured log10 of Ki of the molecule listed here: O=C(NCC1CCNCC1)[C@](O)(c1ccccc1)[C@@H]1CCC(F)(F)C1
**A:** 1.36

**Q:** State, for Muscarinic acetylcholine receptor M1 (Homo sapiens, UniProt P11229), measured log10 of Ki of the molecule listed here: CCC1(CCN)CCN(C(=O)[C@](O)(c2ccccc2)[C@@H]2CCC(F)(F)C2)CC1
**A:** 0.00

**Q:** State, for Muscarinic acetylcholine receptor M1 (Homo sapiens, UniProt P11229), measured log10 of Ki of the molecule listed here: NCC1CCN(C(=O)[C@](O)(c2ccccc2)[C@@H]2CCC(F)(F)C2)CC1
**A:** 1.04

**Q:** State, for Muscarinic acetylcholine receptor M1 (Homo sapiens, UniProt P11229), measured log10 of Ki of the molecule listed here: NCCN1CCN(C(=O)[C@](O)(c2ccccc2)[C@@H]2CCC(F)(F)C2)CC1
**A:** 1.04

----------
Quick reference: remaining at 0.5 h of the listed items.
Assay: In vitro metabolic stability determined after 30 min of incubation in dog hepatic microsomes
Type: ADME, Canis lupus familiaris
Conditions: liver microsomes, read-out: Metabolic stability
Express it in %; write the number only.

Some solved cases for reference:
1. NCC1CCN(C(=O)[C@](O)(c2ccccc2)C2CCCC2)CC1    100
2. NC1CCN(C(=O)[C@](O)(c2ccccc2)[C@@H]2CCC(F)(F)C2)CC1    88
3. NCCC1CCN(C(=O)[C@](O)(c2ccccc2)[C@@H]2CCC(F)(F)C2)CC1    100
4. NCC1CCN(C(=O)[C@](O)(c2ccccc2)[C@@H]2CCC(F)(F)C2)CC1    100
5. NCCC1CCN(C(=O)[C@](O)(c2ccccc2)C2CCCC2)CC1    84

**Q:** Input Nc1cccc(CN2CCC(NC(=O)[C@](O)(c3ccccc3)[C@@H]3CCC(F)(F)C3)CC2)n1 , output reported remaining at 0.5 h.
**A:** 84

**Q:** Input NC1CCN(C(=O)[C@](O)(c2ccccc2)C2CCCC2)CC1 , output reported remaining at 0.5 h.
**A:** 89
